IRF reporter: recorded values
# Test system: RAW-Dual (murine macrophage reporter line)
# assay_comment: IRF reporter (Lucia luciferase) activity fold change vs agonist alone; higher = enhanced IRF activity
# measurement_parameters: modulator concentration 10 µM; agonist: MPLA […]
# respond with the number and nothing more

smiles_str	value_measured
CCCCCOC(=O)CSc1nnc(-c2ccc(Cl)cc2Cl)o1	1.02
Cc1cc(OCC(=O)NNC(=O)COc2ccc(Br)cc2Br)cc(C)c1Cl	0.98

Look up IRF reporter for this compound: CC(C)CN(C[C@@H](O)[C@H](Cc1ccccc1)NC(=O)O[C@H]1CO[C@H]2OCC[C@H]21)S(=O)(=O)c1ccc(N)cc1
1.02
